Listed here: items and their measured refractive index.
Assay: refractive index (Na D-line) (dimensionless); an = ratio of the nth substance listed
Conditions: 313.15 K; 101 kPa; Liquid; Standard Abbe refractometry; a2 = 3
Numbers after ± are expanded uncertainties.
experimentalReadout: refractive index

compound | result
CCC[N+](CCC)(CCC)Cc1ccccc1.[Cl-] [benzyltripropylammonium chloride] + Oc1ccccc1 | 1.542 ± 0.0008
CCC[N+](CCC)(CCC)Cc1ccccc1.[Cl-] [benzyltripropylammonium chloride] + CC(O)C(=O)O | 1.4876 ± 0.0015
CCC[N+](CCC)(CCC)Cc1ccccc1.[Cl-] [benzyltripropylammonium chloride] + OCC(O)CO | 1.4999 ± 0.0008
CCC[N+](CCC)(CCC)Cc1ccccc1.[Cl-] [benzyltripropylammonium chloride] + OCCO | 1.4924 ± 0.0008
